# SYSTEM NAME: S. aureus GyrB ATPase (Staphylococcus aureus)
# EXPERIMENTAL PROTOCOL: biochemical
# CONDITION SUMMARY: compound at 1 μM; one value per test if tested more than once; read-out: % Inhibition of S. aureus GyrB ATPase
Reported inhibition at 1 µM values follow for various compounds
Write the answer as a number in %, unit excluded.

CCNC(=O)Nc1cc(-c2nc(C(F)(F)F)cs2)c(-c2ccc3c(=O)c(C(=O)NCCCO)cn(CC4CC4)c3c2)cn1	108
CCNC(=O)Nc1cc(-c2nc(C(F)(F)F)cs2)c(-c2ccc3c(c2)c(=O)c(C(=O)N2CCN(C)CC2)cn3C2CN(C)C2)cn1	109

Please examine the following record next.
// inhibition at 1 µM lookup, key: "CCNC(=O)Nc1cc(-c2nc(C(F)(F)F)cs2)c(-c2ccc3c(c2)c(=O)c(C(=O)O)cn3Cc2cn(C)cn2)cn1"
93

* * *

# SYSTEM NAME: S. aureus GyrB ATPase (Staphylococcus aureus, UniProt P0A0K8)
# Sequence (P0A0K8 whole entry): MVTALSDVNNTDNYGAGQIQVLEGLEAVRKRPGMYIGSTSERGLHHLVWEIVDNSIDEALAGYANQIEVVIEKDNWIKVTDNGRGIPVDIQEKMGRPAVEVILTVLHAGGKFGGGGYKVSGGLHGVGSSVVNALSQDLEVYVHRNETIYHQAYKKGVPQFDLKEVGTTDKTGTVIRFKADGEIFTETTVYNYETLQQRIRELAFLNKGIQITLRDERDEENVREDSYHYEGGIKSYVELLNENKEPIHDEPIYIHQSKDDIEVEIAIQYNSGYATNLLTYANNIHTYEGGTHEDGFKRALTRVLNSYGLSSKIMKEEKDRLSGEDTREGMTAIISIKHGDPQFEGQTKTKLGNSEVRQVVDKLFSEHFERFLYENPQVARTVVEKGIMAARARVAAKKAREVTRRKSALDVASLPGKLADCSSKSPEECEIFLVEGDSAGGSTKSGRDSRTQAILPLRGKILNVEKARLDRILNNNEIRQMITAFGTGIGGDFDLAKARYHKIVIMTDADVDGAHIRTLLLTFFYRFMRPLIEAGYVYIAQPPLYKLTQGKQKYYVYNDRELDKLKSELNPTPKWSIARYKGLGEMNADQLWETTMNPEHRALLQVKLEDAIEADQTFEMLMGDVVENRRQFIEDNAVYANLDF
# Sequence (P0AES4 whole entry, further chain): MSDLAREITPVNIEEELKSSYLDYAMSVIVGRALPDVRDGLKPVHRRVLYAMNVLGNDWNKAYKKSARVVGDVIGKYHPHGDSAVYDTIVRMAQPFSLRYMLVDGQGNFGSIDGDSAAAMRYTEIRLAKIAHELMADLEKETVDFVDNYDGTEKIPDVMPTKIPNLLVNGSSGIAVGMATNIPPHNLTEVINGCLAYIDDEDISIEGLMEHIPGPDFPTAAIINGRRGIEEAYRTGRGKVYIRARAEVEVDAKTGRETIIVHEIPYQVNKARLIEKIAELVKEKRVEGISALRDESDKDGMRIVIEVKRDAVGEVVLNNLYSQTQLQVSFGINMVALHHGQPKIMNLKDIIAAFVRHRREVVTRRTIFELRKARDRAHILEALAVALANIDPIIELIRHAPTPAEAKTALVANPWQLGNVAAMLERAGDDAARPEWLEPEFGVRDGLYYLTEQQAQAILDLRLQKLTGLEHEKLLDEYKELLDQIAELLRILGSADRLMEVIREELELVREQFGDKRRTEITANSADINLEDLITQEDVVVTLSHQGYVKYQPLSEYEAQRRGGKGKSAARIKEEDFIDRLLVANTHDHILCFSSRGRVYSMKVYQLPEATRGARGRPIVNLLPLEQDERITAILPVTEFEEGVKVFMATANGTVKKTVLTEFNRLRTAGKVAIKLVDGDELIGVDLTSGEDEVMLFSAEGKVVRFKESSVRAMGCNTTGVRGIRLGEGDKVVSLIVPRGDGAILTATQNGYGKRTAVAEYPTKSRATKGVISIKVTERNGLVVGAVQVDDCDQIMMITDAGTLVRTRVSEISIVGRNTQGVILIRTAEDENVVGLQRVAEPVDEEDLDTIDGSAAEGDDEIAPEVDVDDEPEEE
# EXPERIMENTAL PROTOCOL: biochemical
# CONDITION SUMMARY: compound at 1 μM; one value per test if tested more than once; read-out: % Inhibition of S. aureus GyrB ATPase
Reported inhibition at 1 µM values follow for various molecules
Write the answer as a number in %, unit excluded.

CCNC(=O)Nc1cc(-c2nc(C(F)(F)F)cs2)c(-c2ccc3c(c2)c(=O)c(C(=O)O)cn3CC)cn1 [Example 10]	99
CCNC(=O)Nc1cc(-c2nc(C(F)(F)F)cs2)c(-c2ccc3c(c2)c(=O)c(C(=O)O)cn3C2CCCN(Cc3ccncc3)C2)cn1 (stereo not drawn) [Example 309]	109
CCNC(=O)Nc1cc(-c2nc(C(F)(F)F)cs2)c(-c2ccc3c(c2)c(=O)c(C(=O)O)cn3[C@H](CC)CO)cn1 [Example 79]	97
CCNC(=O)Nc1cc(-c2nc(C(F)(F)F)cs2)c(-c2ccc3c(=O)c(C(=O)NCCN(C)C)cn(Cc4ccccc4)c3c2)cn1 [Example 356]	85
CCNC(=O)Nc1cc(-c2nc(C(F)(F)F)cs2)c(-c2ccc3c(c2)c(=O)c(C(=O)O)cn3[C@H]2CCCN(CCS(C)(=O)=O)C2)cn1 [Example 280]	103

Please examine the following record next.
// inhibition at 1 µM lookup, key: CCNC(=O)Nc1cc(-c2nc(CC)cs2)c(-c2cc3c4c(c2)c(=O)c(C(=O)NC)cn4CCO3)cn1 [Example 38]
99

* * *

# SYSTEM NAME: S. aureus GyrB ATPase (Staphylococcus aureus, UniProt P0A0K8)
# EXPERIMENTAL PROTOCOL: biochemical
# CONDITION SUMMARY: compound at 1 μM; one value per test if tested more than once; read-out: % Inhibition of S. aureus GyrB ATPase
MEASURED QUANTITY: inhibition at 1 µM (%)
Write the answer as a number in %, unit excluded.

Example entries begin here.
CCNC(=O)Nc1cc(-c2nc(CC)cs2)c(-c2ccc3c(c2)c(=O)c(C(=O)NC)cn3CC)cn1	96
CCNC(=O)Nc1cc(-c2nc(C(F)(F)F)cs2)c(-c2ccc3c(=O)c(C(=O)O)c[nH]c3c2)cn1	101
CCNC(=O)Nc1cc(-c2nc(C(F)(F)F)cs2)c(-c2cc3c4c(c2)c(=O)c(C(=O)OCC)cn4CCO3)cn1	106

// inhibition at 1 µM lookup, key: "CCNC(=O)Nc1cc(-c2nc(C(F)(F)F)cs2)c(-c2ccc3c(c2)c(=O)c(C(=O)O)cn3[C@@H]2CCN(CC)C2)cn1"
112

// inhibition at 1 µM lookup, key: "CCCNC(=O)Nc1cc(-c2nc(C(F)(F)F)cs2)c(-c2ccc3c(c2)c(=O)c(C(=O)NCCO)cn3CCN2CCOCC2)cn1"
94

// inhibition at 1 µM lookup, key: "CCNC(=O)Nc1cc(-c2nc(C(F)(F)F)cs2)c(-c2ccc3c(=O)c(C(=O)NCCN(C)C)cn(CC)c3c2)cn1"
109

// inhibition at 1 µM lookup, key: "CCCNC(=O)Nc1cc(-c2nc(C(F)(F)F)cs2)c(-c2ccc3c(c2)c(=O)c(C(=O)N2CCNCC2)cn3C2CN(C)C2)cn1"
104

// inhibition at 1 µM lookup, key: "CCNC(=O)Nc1cc(-c2nc(C(F)(F)F)cs2)c(-c2ccc3c(=O)c(C(=O)NCCCO)cn(CC(C)C)c3c2)cn1"
98

* * *

# SYSTEM NAME: S. aureus GyrB ATPase (Staphylococcus aureus, UniProt P0A0K8)
# EXPERIMENTAL PROTOCOL: biochemical
# CONDITION SUMMARY: compound at 1 μM; one value per test if tested more than once; read-out: % Inhibition of S. aureus GyrB ATPase
MEASURED QUANTITY: inhibition at 1 µM (%)
Write the answer as a number in %, unit excluded.

Example entries begin here.
CCNC(=O)Nc1cc(-c2nc(C(F)(F)F)cs2)c(-c2ccc3c(=O)c(C(=O)NCCN4CCN(C)CC4)cn(Cc4cccnc4)c3c2)cn1	94
CCNC(=O)Nc1cc(-c2nc(C(F)(F)F)cs2)c(-c2ccc3c(c2)c(=O)c(C(=O)O)cn3[C@@H]2CCCN(CCN3CCOCC3)C2)cn1	105

What value of inhibition at 1 µM on S. aureus GyrB ATPase (Staphylococcus aureus, UniProt P0A0K8) does "CCNC(=O)Nc1cc(-c2nc(C(F)(F)F)cs2)c(-c2ccc3c(=O)c(C(=O)NC)cn(CC(C)C)c3c2)cn1" have?
99

What value of inhibition at 1 µM on S. aureus GyrB ATPase (Staphylococcus aureus, UniProt P0A0K8) does "CCCNC(=O)Nc1cc(-c2nc(C(F)(F)F)cs2)c(-c2ccc3c(c2)c(=O)c(C(=O)O)cn3CCC2CCOCC2)cn1" have?
111

What value of inhibition at 1 µM on S. aureus GyrB ATPase (Staphylococcus aureus, UniProt P0A0K8) does "CCNC(=O)Nc1cc(-c2nc(C(F)(F)F)cs2)c(-c2ccc3c(=O)c(C(=O)NCCN(C)C)cn(CC(C)C)c3c2)cn1" have?
95

What value of inhibition at 1 µM on S. aureus GyrB ATPase (Staphylococcus aureus, UniProt P0A0K8) does CCNC(=O)Nc1cc(-c2nc(C(F)(F)F)cs2)c(-c2ccc3c(c2)c(=O)c(C(=O)O)cn3CC2CCN(CC)C2)cn1 (stereo not drawn) have?
103

* * *

Reported inhibition at 1 µM values follow for various compounds
# SYSTEM NAME: S. aureus GyrB ATPase (Staphylococcus aureus, UniProt P0A0K8)
# EXPERIMENTAL PROTOCOL: biochemical
# CONDITION SUMMARY: compound at 1 μM; one value per test if tested more than once; read-out: % Inhibition of S. aureus GyrB ATPase
Your reply should be a number followed by the unit it is expressed in.

Example entries begin here.
CCNC(=O)Nc1cc(-c2nc(C(F)(F)F)cs2)c(-c2ccc3c(c2)c(=O)c(C(=O)NCC(O)CO)cn3C2CC2)cn1 (stereo not shown)	109%
CCNC(=O)Nc1cc(-c2nc(C(F)(F)F)cs2)c(-c2ccc3c(c2)c(=O)c(C(=O)O)cn3[C@@H]2CCCC[C@H]2O)cn1	101%
CCNC(=O)Nc1cc(-c2nc(C(F)(F)F)cs2)c(-c2ccc3c(c2)c(=O)c(C(=O)O)cn3CCOC)cn1	100%

// inhibition at 1 µM lookup, key: "CCNC(=O)Nc1cc(-c2nc(C(F)(F)F)cs2)c(-c2ccc3c(=O)c(C(=O)NCCN4CCN(C)CC4)cn(CC4CC4)c3c2)cn1"
97%

// inhibition at 1 µM lookup, key: "CC(C)NC(=O)Nc1cc(-c2nc(C(F)(F)F)cs2)c(-c2ccc3c(c2)c(=O)c(C(=O)NCCO)cn3CCN2CCN(C)CC2)cn1"
94%

// inhibition at 1 µM lookup, key: "CCNC(=O)Nc1cc(-c2nc(C(F)(F)F)cs2)c(-c2ccc3c(c2)c(=O)c(C(=O)N2CCN(S(=O)(=O)N(C)C)CC2)cn3C2CN(C)C2)cn1"
109%

// inhibition at 1 µM lookup, key: "CCNC(=O)Nc1cc(-c2nc(C(F)(F)F)cs2)c(-c2ccc3c(c2)c(=O)c(C(=O)O)cn3[C@H]2CCCNC2)cn1"
105%

// inhibition at 1 µM lookup, key: "CCCNC(=O)Nc1cc(-c2nc(C(F)(F)F)cs2)c(-c2ccc3c(c2)c(=O)c(C(=O)NCCO)cn3C2CCOCC2)cn1"
92%

// inhibition at 1 µM lookup, key: "CCNC(=O)Nc1cc(-c2nc(C(F)(F)F)cs2)c(-c2ccc3c(c2)c(=O)c(C(=O)O)cn3[C@@H](CO)C(C)C)cn1"
96%

// inhibition at 1 µM lookup, key: "CCNC(=O)Nc1cc(-c2nc(C(F)(F)F)cs2)c(-c2ccc3c(c2)c(=O)c(C(=O)N2CCN(C)CC2)cn3CCN(C)C)cn1"
94%

// inhibition at 1 µM lookup, key: "CC(C)NC(=O)Nc1cc(-c2nc(C(F)(F)F)cs2)c(-c2ccc3c(c2)c(=O)c(C(=O)O)cn3CCC2CCOCC2)cn1"
116%

// inhibition at 1 µM lookup, key: "CCNC(=O)Nc1cc(-c2nc(C(F)(F)F)cs2)c(-c2ccc3c(c2)c(=O)c(C(=O)O)cn3C2(CO)CCOCC2)cn1"
95%

// inhibition at 1 µM lookup, key: "CC(C)NC(=O)Nc1cc(-c2nc(C(F)(F)F)cs2)c(-c2ccc3c(c2)c(=O)c(C(=O)O)cn3CCC2CCN(C)CC2)cn1"
103%
